Molecular target: soluble ectodomain of sortilin-6his (Homo sapiens, UniProt Q99523, V650M)
Construct: the soluble ectodomain of sortilin-6his is measured by microscale thermophoresis (MST)
Sequence (Q99523 with tags, fused parts or gaps V650M): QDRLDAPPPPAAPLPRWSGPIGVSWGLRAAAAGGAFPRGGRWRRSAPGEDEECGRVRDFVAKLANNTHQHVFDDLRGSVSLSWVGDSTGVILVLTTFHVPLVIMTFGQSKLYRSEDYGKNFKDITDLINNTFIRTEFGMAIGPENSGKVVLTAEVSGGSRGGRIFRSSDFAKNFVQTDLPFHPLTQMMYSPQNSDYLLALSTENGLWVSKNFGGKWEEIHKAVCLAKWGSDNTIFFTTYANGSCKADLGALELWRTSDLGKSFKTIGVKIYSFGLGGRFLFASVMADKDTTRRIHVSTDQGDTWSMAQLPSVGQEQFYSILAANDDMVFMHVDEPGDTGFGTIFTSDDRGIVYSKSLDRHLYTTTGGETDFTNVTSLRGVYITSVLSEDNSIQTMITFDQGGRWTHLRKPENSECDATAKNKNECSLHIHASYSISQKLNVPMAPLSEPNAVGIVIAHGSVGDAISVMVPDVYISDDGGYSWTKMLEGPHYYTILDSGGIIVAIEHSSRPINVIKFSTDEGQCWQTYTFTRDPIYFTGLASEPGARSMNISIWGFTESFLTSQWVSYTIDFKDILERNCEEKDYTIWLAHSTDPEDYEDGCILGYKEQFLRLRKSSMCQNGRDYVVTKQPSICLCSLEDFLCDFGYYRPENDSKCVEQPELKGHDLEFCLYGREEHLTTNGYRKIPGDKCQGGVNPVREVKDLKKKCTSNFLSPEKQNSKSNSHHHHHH
Test: MST binding to soluble ectodomain of sortilin-6his
Conditions: Table 3; monofunctional peptides; MST; read-out: KD score, binding to sortilin (Kd)
No end group written: not given here.
Record form. Attribute: Kd. Fill in for each entry.

A selection of reference data follows.
1. H-GVSWGLR-OH [compound 52]
> 2500 nM
2. REAPRWDAPLRDPALRYYL-OH [compound 61]
25 to 250 nM
3. GGSGGGGSGGGGSGGRQLL-OH [compound 167]
25 to 250 nM
4. APLRDPAPRQLL-OH [compound 57]
25 to 250 nM
5. REAPRWDAPLRDPALRYLL-OH [compound 59]
< 25 nM
6. H-ITVDPRLFKKRRLRSPRVLF-NH2 [compound 48]
> 2500 nM
7. H-WSGPIGVSWGLRAAAAGFQLL-OH [compound 179]
< 25 nM
8. REALRWDAPLRDPAPRQLL-OH [compound 54]
< 25 nM

Now look at this one.
// query Please report the recorded Kd for REAPRWDAPLRDPALFQLL-OH [compound 58] .
// result < 25 nM

---

Target: soluble ectodomain of sortilin-6his (Homo sapiens, UniProt Q99523, V650M)
Construct: the soluble ectodomain of sortilin-6his is measured by microscale thermophoresis (MST)
Assay: MST binding to soluble ectodomain of sortilin-6his
Details: Table 4; small molecule bifunctional compounds; MST; read-out: KD score, binding to sortilin (Kd)
pKd: −log10 of the molar value.
measured property: pKd

1) C[C@@H]1CN(c2ncc(-c3ccc4c(n3)N(Cc3cccnc3C#N)C(C)(C)C4=O)cn2)CCN1C(=O)CNC(=O)COCCOCCOCCOCCOc1cccc(Oc2ccc(C(=O)N[C@@H](CCC(C)(C)C)C(=O)O)cn2)c1
8.00 to 9.00

Take each entry in turn and give its pKd.
1. C[C@@H]1CN(c2ncc(-c3ccc4c(n3)N(Cc3cccnc3C#N)C(C)(C)C4=O)cn2)CCN1C(=O)COCCOCCNC(=O)c1cccc(Oc2ccc(C(=O)N[C@@H](CCC(C)(C)C)C(=O)O)cn2)c1
2. C[C@@H]1CN(c2ncc(-c3ccc4c(n3)N(Cc3cccnc3C#N)C(C)(C)C4=O)cn2)CCN1C(=O)COCCCCCCCCNC(=O)c1cccc(Oc2ccc(C(=O)N[C@@H](CCC(C)(C)C)C(=O)O)cn2)c1

// result
1. 8.00 to 9.00
2. > 9.00

---

So I've got a bunch of compounds here, and I need their Kd values.
Biological target: soluble ectodomain of sortilin-6his (Homo sapiens, UniProt Q99523, V650M)
Construct: the soluble ectodomain of sortilin-6his is measured by microscale thermophoresis (MST)
Assay: MST binding to soluble ectodomain of sortilin-6his
Settings: Table 4; small molecule bifunctional compounds; MST; read-out: KD score, binding to sortilin (Kd)

1) Cc1nc2cc(F)c(-c3cnc(OCCOCCOCCOCCOCCOCCOCCNC(=O)COc4cccc(Oc5ccc(C(=O)N[C@@H](CCC(C)(C)C)C(=O)O)cn5)c4)nc3)nc2c(N[C@H](C)c2cc(C#N)ccc2F)c1Cl
1 to 10 nM
2) CC(C)(C)CC[C@H](NC(=O)c1ccc(Oc2cccc(C(=O)NCCOCCOCCOCCNc3ncc(-c4ccc5c(n4)N(Cc4cccnc4C#N)C(C)(C)C5=O)cn3)c2)nc1)C(=O)O
< 1 nM

Now consider a different compound.
// query Can you look up the measured Kd of CC(C)(C)CC[C@H](NC(=O)c1ccc(Oc2cccc(C(=O)NCCOCCOCCOCCOCCOCCOCCOCCOCCNC(=O)CCCC[C@@H]3SC[C@@H]4NC(=O)N[C@@H]43)c2)nc1)C(=O)O for me?
// result 1 to 10 nM
